system: Staphylococcus aureus EN1252a gyrA^S84L grlA^S80F; assay: microbe, parasite or virus in culture; type: cell-based; details: read-out: Antimicrobial activity (MIC)
Listed next: entries and their corresponding MIC.

Worked cases, MIC given:
{"molecule": "COc1c(N2CCC(C3(N(C)C4CCN(C5=C6NC(=O)/C(C)=C\\C=C\\[C@H](C)[C@H](O)[C@@H](C)[C@@H](O)[C@@H](C)[C@H](OC(C)=O)[C@H](C)[C@@H](OC)/C=C/O[C@@]7(C)Oc8c(C)c(O)c(c(c8C7=O)C5=O)C6=O)CC4)CC3)C2)c(F)cc2c(=O)c(C(=O)O)cn(C3CC3)c12 (mixture of isomers) [Example 41]", "parameter-measured": "MIC", "value-measured": "0.004 to 0.5 µg/mL"}
{"molecule": "CO[C@H]1/C=C/O[C@@]2(C)Oc3c(C)c(O)c4c(c3C2=O)C(=O)C(N2CCN(c3nc5c(cc3F)c(=O)c(C(=O)O)cn5C3CC3)CC2)=C(NC(=O)/C(C)=C\\C=C\\[C@H](C)[C@H](O)[C@@H](C)[C@@H](O)[C@@H](C)[C@H](OC(C)=O)[C@@H]1C)C4=O [Example 55]", "parameter-measured": "MIC", "value-measured": "0.004 to 0.5 µg/mL"}

Kindly consider the entry below.
Req: Fill in the blank: the reported MIC of COc1c(N2CCCC(NC(=O)C3CCN(C4=C5NC(=O)/C(C)=C\C=C\[C@H](C)[C@H](O)[C@@H](C)[C@@H](O)[C@@H](C)[C@H](OC(C)=O)[C@H](C)[C@@H](OC)/C=C/O[C@@]6(C)Oc7c(C)c(O)c(c(c7C6=O)C4=O)C5=O)CC3)C2)c(F)cc2c(=O)c(C(=O)O)cn(C3CC3)c12 (mixture of isomers) [Example 52] is ____.
Resp: 0.004 to 0.5 µg/mL

Just for reference, patent US7247634B2 is where these values come from.
